system: DU-145; assay: NCI tumour cell line growth inhibition, 48 h
Activity calls are given as the source filed them. Rule as the data show it: active = GI50 up to about 1.1 µM and inactive = higher.
Possible outcomes: true (1) (active), false (0) (inactive)

COMPOUND: O=C(Nc1ccccc1C(=O)NCc1ccccc1)/C(=C/c1ccccc1)NC(=O)c1ccccc1
QUALITATIVE_LABEL: false (0)
//
COMPOUND: OC1C[C@H](c2ccccc2)C2(C(O)c3ccccc3C2O)[C@@H](c2ccccc2)C1 (some centres undefined)
QUALITATIVE_LABEL: false (0)
//
COMPOUND: CC1=CC=CC(C)(C)CC1(O[Si](C)(C)C)C(F)(F)F (centres undefined)
QUALITATIVE_LABEL: false (0)
//
COMPOUND: Cc1ccc(NC(=O)/C=C/c2ccccc2)c(C)c1
QUALITATIVE_LABEL: false (0)
//
COMPOUND: Cc1ccc(/C=C2/N/C(=N\N=C/C(O)C(O)C(O)C(O)CO)NC2=O)cc1 (centres undefined)
QUALITATIVE_LABEL: false (0)
//
COMPOUND: COc1cc([C@@H]2c3cc4c(cc3[C@H](OC3OC5COC(C(C)C)OC5C(O)C3O)C3COC(=O)[C@@H]32)OCO4)cc(OC)c1OC (some centres undefined)
QUALITATIVE_LABEL: false (0)
//
COMPOUND: COc1ccc2c(c1)C(N)=C(c1ccccc1)C2=O
QUALITATIVE_LABEL: false (0)
//
COMPOUND: CC(=O)CC1(CBr)Nc2ccc([N+](=O)[O-])cc2NC1=O (centres undefined)
QUALITATIVE_LABEL: false (0)
//
COMPOUND: CSc1nc(-c2cc3c(c(SC)n2)CCCCC3)cc2c1CCCCC2
QUALITATIVE_LABEL: false (0)
//
COMPOUND: O=C(Cn1cc(F)c(=O)[nH]c1=O)C12CC3CC(CC(C3)C1)C2
QUALITATIVE_LABEL: false (0)
//
COMPOUND: Cc1cc(S(=O)(=O)N=C2N(Cc3ccccc3)CCN2Cc2ccccc2)c(S)cc1Cl
QUALITATIVE_LABEL: false (0)
//
COMPOUND: O=CC(=C(I)I)c1ccccc1
QUALITATIVE_LABEL: false (0)
//
COMPOUND: Nc1nc(Cl)c(N)c(NCC2(CO)CCC(CCc3ccccc3)C2)n1 (centres undefined)
QUALITATIVE_LABEL: false (0)
//
COMPOUND: O=[N+]([O-])C(C(Cl)=C(Cl)Cl)=C(n1nnc2ccccc21)n1nnc2ccccc21
QUALITATIVE_LABEL: false (0)
//
COMPOUND: N#CC1C=Cc2ccccc2N1C(=O)Oc1ccccc1 (centres undefined)
QUALITATIVE_LABEL: false (0)
//
COMPOUND: O=CC1=C(C(=O)OC(c2ccccc2)c2ccccc2)N2C(=O)[C@@H](NC(=O)Cc3cccs3)[C@H]2SC1
QUALITATIVE_LABEL: false (0)
//
COMPOUND: CC(=O)OCC1OC(N2C(=S)N[C@H]([C@@H](O)[C@H](O)[C@H](O)CO)[C@H]2O)C(OC(C)=O)C(OC(C)=O)C1OC(C)=O (some centres undefined)
QUALITATIVE_LABEL: false (0)
//
COMPOUND: O=C1OC2(c3ccc(O)cc3Oc3cc(O)ccc32)c2c1c(-c1ccccc1)c(-c1ccccc1)c(-c1ccccc1)c2-c1ccccc1
QUALITATIVE_LABEL: false (0)
//
COMPOUND: CC1C2CC(CC(=O)N2)C1(C)C (centres undefined)
QUALITATIVE_LABEL: false (0)
//
COMPOUND: O=C(N/C(=C\c1ccccc1)c1nc2ccccc2c(=O)o1)c1ccccc1
QUALITATIVE_LABEL: false (0)
//
COMPOUND: O=C(Nn1c(-c2ccccc2)nc2ccccc2c1=O)c1ccc(O)cc1
QUALITATIVE_LABEL: false (0)
//
COMPOUND: Nc1ccc2nc3ccc(N)cc3[n+](-c3ccccc3)c2c1
QUALITATIVE_LABEL: false (0)
//
COMPOUND: CC(C)(C)OC(=O)CCC1NC(=O)[C@@H]2Cc3c([nH]c4ccccc34)C(c3ccccc3)N2C1=O (some centres undefined)
QUALITATIVE_LABEL: false (0)
//
COMPOUND: COc1cc(CCN(C)C)cc(OC)c1OC
QUALITATIVE_LABEL: false (0)
//
COMPOUND: COc1c(O)cc2ccnc3c2c1N(C)C=C3
QUALITATIVE_LABEL: false (0)
//
COMPOUND: COc1cc(OC)c(CSCC(NC(=O)OCC2c3ccccc3-c3ccccc32)C(=O)O)c(OC)c1 (centres undefined)
QUALITATIVE_LABEL: false (0)
//
COMPOUND: Nc1nc(N)c2nc(CNc3ccc(C(=O)O)cc3)[nH]c2n1
QUALITATIVE_LABEL: false (0)
//
COMPOUND: COc1cc(/C=N\O)nc(-c2ccccn2)c1
QUALITATIVE_LABEL: true (1)
//
COMPOUND: N#CI1OC(C(F)(F)F)(C(F)(F)F)c2ccccc21
QUALITATIVE_LABEL: false (0)
